Taken from patent US7301005B2.

Test system: SFMC from patients with oJIA
ASSAY TEXT: Cytokine production in culture supernatants of SFMC incubated with dnaJ and restimulated with autologous feeder cells plus peptide
Format: cell-based, human
SETUP CONDITIONS: Table 3; dnaJ 72 hr then restimulated with peptide; mean+SD
Give measured IL-6 for each item. Keep answers brief.

Exam item: # query: IL-6 of entry FRSVSTSTTFVQGRR (listed as Homo sapiens) [Peptide 164, human HSJ1 peptide, homologue of bacterial dnaJ peptide 174]
Marked response: 27.3 + 31.3 pg/ml

Exam item: I'd like to know its IL-6. The sequence in question is GRRITTRRIMENGQE (listed as Homo sapiens) [Peptide 176, human HSJ1 peptide, homologue of bacterial dnaJ peptide 174]
Marked response: 21.2 + 25.2 pg/ml

Exam item: So what does the record say about IL-6 for KKAYRRKALQWHPDK (listed as Homo sapiens) [Peptide 20, human HSJ1 peptide, homologue of bacterial dnaJ peptide 22] ?
Marked response: 33.0 + 34.0 pg/ml

Exam item: Item QGFFAVQQTCPHCQG (listed as Escherichia coli) [Peptide 174, bacterial (E. coli) dnaJ peptide] has what recorded IL-6?
Marked response: 56.4 + 70 pg/ml

Exam item: Recorded IL-6 for PGMVQQIQSVCMECQ (listed as Homo sapiens) [Peptide 167, human HDJ2 peptide, homologue of bacterial dnaJ peptide 174] , please?
Marked response: 23.0 + 22.3 pg/ml

Exam item: Given ASYYEILDVPRSASA (listed as Homo sapiens) [Peptide 2, human HSJ1 peptide, homologue of bacterial dnaJ peptide 4] , state its recorded IL-6.
Marked response: 41.7 + 43.8 pg/ml

====

Would you mind telling me the reported IL-6 of each entry?
Tested on: SFMC from patients with oJIA
ASSAY TEXT: Cytokine production in culture supernatants of SFMC incubated with dnaJ and restimulated with autologous feeder cells plus peptide
Format: cell-based, human
SETUP CONDITIONS: Table 3; dnaJ 72 hr then restimulated with peptide; mean+SD
Excerpt: Results are expressed as pg/ml (mean+SD). Cytokine production to the same peptides was examined in culture supernatants of SFMC from patients with oJIA. […] SFMC from only one of 21 patients with oJIA produced detectable levels of the anti-inflammatory cytokine IL-10, and none produced detectable levels of IL-4. […] Results are expressed as SI or pg/ml (mean+SD).

Exam item: # value lookup — system SFMC from patients with oJIA, readout IL-6, item RKAYKRLAMKYHPDR (listed as Escherichia coli) [Peptide 22, bacterial (E. coli) dnaJ peptide]
Marked response: 54.3 + 69.0 pg/ml

Exam item: Request: IL-6, test system SFMC from patients with oJIA, entry QDYYEILGVSKTAEE (listed as Escherichia coli) [Peptide 4, bacterial (E. coli) dnaJ peptide]
Marked response: 60.2 + 60.3 pg/ml

Exam item: SFMC from patients with oJIA / IL-6 / KDYYQTLGLARGASD (listed as Homo sapiens) [Peptide 3, human HDJ1 peptide, homologue of bacterial dnaJ peptide 4] : value?
Marked response: 114.0 + 126 pg/ml

Exam item: What measured IL-6 is associated with TTYYDVLGVKPNATQ (listed as Homo sapiens) [Peptide 5, human HDJ2 peptide, homologue of bacterial dnaJ peptide 4] on SFMC from patients with oJIA?
Marked response: 60.0 + 67.2 pg/ml

Exam item: Provide value of IL-6 for this record tested with SFMC from patients with oJIA: KRAYRRQALRYHPDK (listed as Homo sapiens) [Peptide 21, human HDJ1 peptide, homologue of bacterial dnaJ peptide 22]
Marked response: 33.5 + 43.8 pg/ml

Exam item: Reported IL-6 for SFMC from patients with oJIA, given KKAYRKLALKYHPDK (listed as Homo sapiens) [Peptide 23, human HDJ2 peptide, homologue of bacterial dnaJ peptide 22] ?
Marked response: 33.3 + 32.7 pg/ml
